I'd be grateful if you could share measured melting point for these entries.

For orientation, consider the following solved cases.
COMPOUND	melting point
Cc1cc(CNC(=O)c2sc(N3C[C@@H](C)N(Cc4ccc(F)cc4)C3=O)nc2C)no1	139 to 140 °C
CC(=O)N(Cc1cc(Br)cc2[nH]c(=O)c(=O)[nH]c12)CP(=O)(O)O	> 280 °C

Would you mind listing melting point for each of the following compounds?
1. CCCCN(CCCC)c1ccc(C=Cc2ccc(C=CC3=C(C#N)C(=C(C#N)C#N)OC3(C)C(F)(F)F)s2)c(OCc2ccccc2)c1 (stereo not given)
2. CCCCCCCCCCCCNC(=O)c1cc(Br)c(OCCNC(N)=O)c(-c2cccc(C(F)(F)F)c2)c1
3. Cc1ccc(C=NNc2ccc(S(N)(=O)=O)cc2)cc1
4. CC(=O)N[C@@H]1CCN(S(=O)(=O)c2ccc(Cl)c(COc3cccc4c(-n5ccnc5)cc(C)nc34)c2Cl)C1
5. CC(=O)N1CCN(c2nc(Cl)ccc2[N+](=O)[O-])CC1
6. N=C(Nc1ccc(Cl)cc1)Nc1ncccc1Cc1ccccc1F

1: 184 to 185 °C; 2: 122 to 125 °C; 3: 216 to 218 °C; 4: 246 °C; 5: 137 to 138 °C; 6: 175 to 176 °C
